Measured Classification, listed per entry.
# Study system: T1, GST-Syntrophin gamma 2 PDZ domain 1 (Homo sapiens (Human)), Q9NY99
# T1 chain: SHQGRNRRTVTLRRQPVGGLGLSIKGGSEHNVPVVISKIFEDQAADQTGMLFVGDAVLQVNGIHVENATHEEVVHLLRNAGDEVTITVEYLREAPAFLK
# Measurement protocol: G' assay; also: key of the grades not given here
Expressed in A450 class, but write only the number.

| Binder | Classification [A450 class] |
| --- | --- |
| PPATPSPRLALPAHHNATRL (modifications not checked) [Na+/Pi cotransporter 2] | 1 |
| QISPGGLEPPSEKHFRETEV (modifications not checked) [TAX] | 1 |
| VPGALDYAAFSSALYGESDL (modifications not checked) [a-actinin 2] | 1 |

Okay, next one:
-- ask Entry under review: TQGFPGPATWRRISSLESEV (modifications not checked) [NMDA Glutamate Receptor 2C (cysteine-free)] . Reported Classification?
-- reply 2
